Test system: SR leukemia
measurement.notes: NCI-60 one-dose screen, 48 h (100 = growth as untreated, 0 = no growth, -100 = all killed)
assay.context: 10 µM unless noted
Compounds without any hit were thinned out: in the full panel of roughly 83,000, 20% have a hit.

{"columns": ["molecule", "growth / %"],
 "data": [
  ["O=C(CC12CC3CC(CC(C3)C1)C2)NCCOCCOCCNC(=O)c1cc2c(o1)C(=O)c1ccccc1C2=O", 9.52],
  ["O=[N+]([O-])c1ccc(-c2cc3c(Nc4ccc(Cl)c(C(F)(F)F)c4)ncnc3s2)cc1", 17],
  ["N=C(N)c1ccc(-c2ccc(-c3ccc(Cl)c(Cl)c3)o2)nc1", 1.79],
  ["COc1cc2oc(-c3cccc(C(=O)Nc4ccc(C)cc4)c3)cc(=O)c2c(OC)c1OC", 12.7],
  ["COc1ccc(O)c(-c2cc(-c3ccccc3)c(C#N)c(=O)[nH]2)c1", 89],
  ["CCCN1CCN(c2ccc3nc(-c4ccc5nc(-c6ccc(OCC)c(OCC)c6)[nH]c5c4)[nH]c3c2)CC1", 20.9],
  ["COc1ccc(CN2C(=O)/C(=C\\c3cc(OC)c(OC)c(OC)c3)c3ccccc32)cc1", -21.6],
  ["CCCCn1c(=O)[nH]c(N)c(C(c2ccc(F)cc2)c2c(N)[nH]c(=O)n(CCCC)c2=O)c1=O", 42],
  ["COc1cc2cc(Oc3ccc(NC(=O)Nc4cc(C(F)(F)F)cc(C(F)(F)F)c4)cc3)c(C)nc2cc1OCCN1CCCCC1", -29.5],
  ["COc1cc(/C=C/C(=O)c2cccc(-n3cc(-c4ccccc4)[nH]c3=O)c2)cc(OC)c1OC", -15.9],
  ["O[C@H]1CO[C@H]2[C@@H]1OC[C@@H]2Oc1ccc(Nc2nc(Nc3ccc(F)c(Cl)c3)ncc2F)cc1Cl", 110],
  ["O=C(CC1Sc2ccccc2NC1=O)NNc1ccc(F)cc1 (stereo unspecified)", 83.5],
  ["O=C1Nc2ccc(Cl)cc2/C1=N/N=C/c1c[nH]c2ccccc12", 75.2],
  ["Cc1nc(C)c(-c2nn3c(-c4cccc(F)c4)nnc3s2)s1", 69.3],
  ["Cc1c(C)c2c(c(C)c1NC(=O)/C=C\\C(=O)O)CCC(C)(CCCC(C)CCCC(C)CCCC(C)C)O2 (stereo unspecified)", 9.98],
  ["Cc1cc(-c2noc(C(F)(F)F)n2)ccc1N1CCN(c2cc(C(=O)N(C)C)no2)CC1", 52.9],
  ["Cn1ccc(Cc2cnc(N)s2)n1", 88.7],
  ["CCCCCOC(=O)c1cccc(NC(=O)CN(CC)CC)c1", 78.3],
  ["CC(C)OCCCNCC(=O)Nc1ccc(S(=O)(=O)c2ccc(NC(=O)CNCCCOC(C)C)cc2)cc1", 61.6],
  ["N[C@H]1CCC[C@@H]1NCCCCN1C(=O)c2cccc3cccc(c23)C1=O", 20],
  ["CSc1ccc(Cl)c(C(=O)Nc2sccc2C(N)=O)c1", 104],
  ["COc1cc(C(=O)Nc2cc(O)c(CC=C(C)C)c(O)c2)cc2c1O[C@]1(C)CC[C@@H](O)C(C)(C)[C@H]1C2", 14.2],
  ["O=C(c1ccccc1)c1ccc(Cl)c([N+](=O)[O-])c1", -3.1],
  ["Fc1ccc(Nc2nc(Nc3ccc(-c4nc5ccccc5[nH]4)cc3)c3cn[nH]c3n2)cc1", -21.1],
  ["O=C1CSC(c2ccccc2O)N1c1nnc(Cn2cnnc2)o1 (stereo unspecified)", 72.4],
  ["COc1ccc(/C(C)=C(\\c2ccc(Cl)cc2)c2ccc(OCCCN(C)C)cc2)cc1F", -19.7]
]}

###

Measured growth, listed per entry for reference.
System: SNB-19 CNS
measurement.notes: NCI-60 one-dose screen, 48 h (100 = growth as untreated, 0 = no growth, -100 = all killed)
assay.context: 10 µM unless noted
Compounds without any hit were thinned out: in the full panel of roughly 83,000, 20% have a hit.
readout: growth (%)

{"columns": ["compound", "endpoint.result"],
 "data": [
  ["CCNCCNc1cc(-c2cccc(C(F)(F)F)c2)c(C#N)c2nc3ccccc3n12", -20.3],
  ["C=C1C(=O)O[C@H]2[C@H]1CC/C(COC(=O)/C=C\\C(=O)NCc1ccc(Cn3c(=O)sn(-c4ccc(Cl)cc4)c3=O)cc1)=C\\CC[C@@]1(C)O[C@@H]21", -8.33],
  ["Cc1cc(N(CCCNc2ccnc3cc(Cl)ccc23)Cc2ccccn2)nc(N2CCCC2)n1", 91.2],
  ["O=c1[nH]c(NCc2nnnn2-c2ccc(Br)cc2)nc2sc3c(c12)CCCC3", 96.1],
  ["CC(C)CCC[C@@H](C)[C@H]1CCC2C3=CCn4c(=O)ccc(=O)n4C3CC[C@@]21C (stereo partly drawn)", -96.8],
  ["COc1ccc(/C(C)=C(\\c2ccc(Cl)cc2)c2ccc(OCCN(C)C)cc2)cc1F", 80],
  ["COC(=O)Nc1nc2ccc(C(=O)C3CC3)cc2[nH]1", 13.5],
  ["N#Cc1c(N)nc2c(nnn2-c2cccc(Br)c2)c1N", 95.9],
  ["C=C(CNCCc1ccc(O)cc1)[C@@H]1CC[C@]2(COC3CCCCO3)CC[C@]3(C)[C@H](CC[C@@H]4[C@@]5(C)CCC(N)C(C)(C)[C@@H]5CC[C@]43C)[C@@H]12 (stereo partly drawn)", -85.8],
  ["COc1ccc(-n2sc(=O)n(Cc3ccc(COC(=O)C(C)c4ccc(CC(C)C)cc4)cc3)c2=O)cc1 (stereo not drawn)", 80.5],
  ["CSc1nc(N)c(CNC(C)c2ccccc2)c(=O)n1C (stereo not drawn)", 98.9],
  ["COc1ccc(-n2ncn(CCCCCCn3cnn(-c4ccc(OC)cc4)c3=O)c2=O)cc1", 90.3],
  ["Cc1cc(Cl)nc(N(CCCNc2ccnc3cc(Cl)ccc23)Cc2ccccn2)n1", 66.5]
]}

###

Test system: SK-MEL-2 melanoma
measurement.notes: NCI-60 one-dose screen, 48 h
assay.context: 10 µM unless noted
This is part of a sample that, as a whole, favours compounds with a hit. Of some 83,000 tested, about 20% had one in any assay. Active and inactive are the calls of the source. How the source made its calls: active means growth percent below 10; inactive means the rest.
Outcomes: active, inactive

{"columns": ["compound", "target.or.system", "category"],
 "data": [
  ["O=C(NCCOCCOCCOCCNC(=O)c1cc2c(o1)C(=O)c1ccccc1C2=O)NC12CC3CC(CC(C3)C1)C2", "SK-MEL-2 melanoma", "active"],
  ["CCOC(=O)c1c2c(c(C)n1C)-c1nn(Cc3ccc(OC)cc3)cc1CC2", "SK-MEL-2 melanoma", "inactive"],
  ["O=C1N/C(=N/O)S/C1=C/c1cn(-c2ccccc2)nc1-c1ccccc1", "SK-MEL-2 melanoma", "inactive"],
  ["CN(C)c1cnccn1", "SK-MEL-2 melanoma", "inactive"],
  ["Cn1cc(-c2ccc3nc(-c4ccc(CC(=O)Nc5cc(C(C)(C)C)no5)cc4)cnc3c2)cn1", "SK-MEL-2 melanoma", "inactive"],
  ["Cc1c2c(cn1Cc1ccccc1)CCc1cn(C)nc1-2", "SK-MEL-2 melanoma", "inactive"],
  ["C=C1C(=O)O[C@H]2[C@H]1CC/C(COC(=O)/C=C\\C(=O)NCc1ccc(Cn3c(=O)sn(CCCC)c3=O)cc1)=C\\CC[C@@]1(C)O[C@@H]21", "SK-MEL-2 melanoma", "active"],
  ["Cc1cc(N(CCCNc2ccnc3cc(Cl)ccc23)Cc2ccccn2)nc(N2CCCC2)n1", "SK-MEL-2 melanoma", "inactive"],
  ["Nc1c(-c2nc3ccc(Br)cc3c(=O)[nH]2)nnn1-c1ccccc1", "SK-MEL-2 melanoma", "inactive"],
  ["Cc1ccc(NC(=O)C(Cl)Cl)cc1", "SK-MEL-2 melanoma", "inactive"],
  ["Cc1c(C(=O)O[C@H]2[C@@H]3[C@H](C)CC[C@H]3[C@]3(C)O[C@@]2(C2CCCCC2)C[C@H]3OC(=O)CO)ccc2ccccc12", "SK-MEL-2 melanoma", "inactive"],
  ["CCN(CCO)CC(=O)c1cc(Cl)cc(Cl)c1Cl", "SK-MEL-2 melanoma", "inactive"],
  ["CSc1nc(N)c(CNC(C)c2ccccc2)c(=O)n1C (centres undefined)", "SK-MEL-2 melanoma", "inactive"],
  ["CNCCNc1nc2ccccc2c2c(=O)c3cc(F)ccc3oc12", "SK-MEL-2 melanoma", "inactive"],
  ["COc1ccc(Cn2cnc3cc(C(=O)Nc4cccc5ccccc45)ccc32)c(OC)c1", "SK-MEL-2 melanoma", "inactive"],
  ["CN1C[C@@H](c2ccc(Cl)cc2)[C@]2(NC(=S)N(c3ccc(F)c(Cl)c3)C2=O)[C@@]12C(=O)NC1C=CC(Cl)=C[C@H]12 (some centres undefined)", "SK-MEL-2 melanoma", "inactive"],
  ["NS(=O)(=O)Oc1ccc(NC(=O)C23CC4CC(CC(C4)C2)C3)cc1Cl", "SK-MEL-2 melanoma", "inactive"],
  ["Cc1nc(Nc2ccccn2)sc1C(=O)/C=C/c1ccc(Br)cc1", "SK-MEL-2 melanoma", "inactive"],
  ["CC(C)OCCCNCC(=O)Nc1ccc(S(=O)(=O)c2ccc(NC(=O)CNCCCOC(C)C)cc2)cc1", "SK-MEL-2 melanoma", "inactive"],
  ["C=C1C(=O)O[C@H]2[C@H]1CC/C(COC(=O)/C=C\\C(=O)NCc1ccc(Cn3c(=O)sn(CCCI)c3=O)cc1)=C\\CC[C@@]1(C)O[C@@H]21", "SK-MEL-2 melanoma", "active"],
  ["C/C(=N\\NC(N)=S)c1nc2ccc(Cl)cc2[nH]1", "SK-MEL-2 melanoma", "inactive"],
  ["COc1ccc(-c2nnc(SCC(=O)NC3=NN=C(c4ccccc4)CS3)o2)cc1", "SK-MEL-2 melanoma", "inactive"],
  ["CNC=O", "SK-MEL-2 melanoma", "inactive"],
  ["OC(CBr)c1ccnc2ccccc12 (centres undefined)", "SK-MEL-2 melanoma", "inactive"],
  ["COc1ccc(/C(C)=C(\\c2ccc(Cl)cc2)c2ccc(OCCN(C)C)cc2)cc1F", "SK-MEL-2 melanoma", "inactive"],
  ["CO/C(=C1/NC(=O)C(Cc2ccc(O)c(Br)c2)N(C)C(=O)C(C)NC(=O)CCC/C=C(\\C)CCC(C)OC1=O)c1ccccc1 (centres undefined)", "SK-MEL-2 melanoma", "active"],
  ["COc1cc(-c2ccc(N=Nc3c(O)c(C(=O)Nc4ccccc4OC)cc4ccccc34)c(OC)c2)ccc1N=Nc1c(O)c(C(=O)Nc2ccccc2OC)cc2ccccc12", "SK-MEL-2 melanoma", "inactive"],
  ["O=C(O)c1ccc(CO)o1", "SK-MEL-2 melanoma", "inactive"],
  ["CCn1c(Sc2nnc(Nc3ccccc3)s2)nc2c1c(=O)n(C)c(=O)n2C", "SK-MEL-2 melanoma", "inactive"]
]}
